# assay.system: recombinant human liver glycogen phosphorylase (Homo sapiens, UniProt P06737)
# Construct: made in house; host or cells: Sf9 insect cells (crude homogenate, diluted, used as the enzyme solution)
# experimental.protocol: Measuring liver glycogen phosphorylase activity (forward reaction system, NADPH absorbance at 340 nm)
# Assay type: biochemical
# experimental.setup: compound concentration 1000 nmol (in parentheses); read-out: inhibition rate (%) at a certain concentration
# Description: [Pharmacological Test] 1. Exemplary Test (1) Method for Measuring Liver Glycogen Phosphorylase Activity The measurement of glycogen phosphorylase activity was carried out by a method using the forward reaction system. The measurement of glycogen phosphorylase activity using the forward reaction system was carried out as follows. […] NADPH generated from NADP during the dehydrogenation by G6PDH was detected. […]
Label Y for high-side inhibition at 1 µM (at or above 40%) and N for low-side inhibition at 1 µM (below it).

structure.as.smiles	assigned.class
COC(=O)[C@H](NC(=O)c1cc(NC(=O)c2cc(F)c(F)cc2Cl)[nH]n1)c1ccccc1	Y
COC(=O)[C@@H](NC(=O)c1cc(NC(=O)c2cc(F)c(F)cc2Cl)[nH]n1)c1ccccc1	N
O=C(Nc1cc(C(=O)N(CCO)c2ccccc2)n[nH]1)c1cc(F)c(F)cc1Cl	Y
CCOC(=O)C1CCN(C(=O)c2cc(NC(=O)c3cc(F)c(F)cc3Cl)[nH]n2)CC1	Y
O=C(Nc1cc(C(=O)N2CCC(C(=O)O)CC2)n[nH]1)c1cc(F)c(F)cc1Cl	N

###

# System: db/db mice
# experimental.protocol: Measuring blood plasma glucose concentration in db/db mice (hypoglycemic effect)
# Type: in vivo
# Design: key: ++: compounds exhibiting statistically significant hypoglycemic effect at a dose of 10 mg/kg or less; +: compounds exhibiting not significant but obvious hypoglycemic effect at a dose of 10 mg/kg
# experimental.setup: db/db mice fasted 4 h, oral administration, plasma glucose 1 and 3 hours after administration, dose 10 mg/kg or less, Dunnett test vs solvent
Where a name gives a salt, the structure may show the parent alone.
measured.parameter: vivo (hypoglycemic effect in db/db mice)

compound	value
O=C(NCc1ccc(F)cc1)c1cc(NC(=O)c2cc(F)c(F)cc2Cl)[nH]n1 [Example 1-70]	++
CCOCCN(C(=O)c1cc(NC(=O)c2cc(F)c(F)cc2Cl)[nH]n1)c1ccccc1 [Example 4-18]	+
O=C(NCc1c(Cl)cccc1Cl)c1cc(NC(=O)c2cc(F)c(F)cc2Cl)[nH]n1 [Example 1-134]	+
O=C(NCc1ncc(F)cc1F)c1cc(NC(=O)c2cc(F)c(F)cc2Cl)[nH]n1 [Example 1-26]	+
COc1cncc(OC)c1CNC(=O)c1cc(NC(=O)c2cc(F)c(F)cc2Cl)[nH]n1 [Example 5-17]	+
O=C(NCc1cccnc1)c1cc(NC(=O)c2cc(F)c(F)cc2Cl)[nH]n1 [Example 1-1-1, dihydrochloride]	++
O=C(NCc1cscn1)c1cc(NC(=O)c2cc(F)c(F)cc2Cl)[nH]n1 [Example 1-38]	+
COc1cccc(OC)c1CNC(=O)c1cc(NC(=O)c2cc(F)c(F)cc2Cl)[nH]n1 [Example 1-15]	+

###

# assay.system: recombinant human liver glycogen phosphorylase (Homo sapiens)
# Construct: made in house; host or cells: Sf9 insect cells (crude homogenate, diluted, used as the enzyme solution)
# Sequence (P06737 1-847): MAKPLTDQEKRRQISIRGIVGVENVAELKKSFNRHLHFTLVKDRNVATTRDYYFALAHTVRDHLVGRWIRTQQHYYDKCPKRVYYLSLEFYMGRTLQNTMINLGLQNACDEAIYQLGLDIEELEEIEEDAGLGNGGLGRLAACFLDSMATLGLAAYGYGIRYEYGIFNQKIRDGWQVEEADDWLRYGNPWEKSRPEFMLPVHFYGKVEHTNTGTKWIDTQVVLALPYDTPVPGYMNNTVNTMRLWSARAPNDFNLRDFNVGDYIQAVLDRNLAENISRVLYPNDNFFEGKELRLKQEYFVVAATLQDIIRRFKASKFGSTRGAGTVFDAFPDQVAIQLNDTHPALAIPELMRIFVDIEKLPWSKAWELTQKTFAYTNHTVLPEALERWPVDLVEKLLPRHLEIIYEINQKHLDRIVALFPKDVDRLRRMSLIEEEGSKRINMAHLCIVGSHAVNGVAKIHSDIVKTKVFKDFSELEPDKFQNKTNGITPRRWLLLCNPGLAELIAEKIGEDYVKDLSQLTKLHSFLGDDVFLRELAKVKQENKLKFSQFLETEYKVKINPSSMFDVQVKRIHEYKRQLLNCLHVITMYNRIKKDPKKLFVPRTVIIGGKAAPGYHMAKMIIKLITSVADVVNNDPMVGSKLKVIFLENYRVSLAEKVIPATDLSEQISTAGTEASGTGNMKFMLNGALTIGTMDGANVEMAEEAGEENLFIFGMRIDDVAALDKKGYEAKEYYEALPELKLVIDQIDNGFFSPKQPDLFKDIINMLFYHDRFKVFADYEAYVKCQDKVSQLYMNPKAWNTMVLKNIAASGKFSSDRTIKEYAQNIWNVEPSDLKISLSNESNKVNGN
# experimental.protocol: Measuring liver glycogen phosphorylase activity (forward reaction system, NADPH absorbance at 340 nm)
# Type: biochemical
# experimental.setup: figure in brackets (300); read-out: IC50 column: % value printed with (300)

structure.as.smiles	inhibition at 0.3 µM
CN(C)C(=O)c1ccc(N(C)C(=O)c2cc(NC(=O)c3cc(F)c(Cl)cc3Cl)[nH]n2)cc1	46.8%
CN(C(=O)c1cc(NC(=O)c2cc(F)c(Cl)cc2Cl)[nH]n1)c1ccc(C(N)=O)cc1	12.3%
CN(C(=O)c1cc(NC(=O)c2cc(F)c(F)cc2Cl)[nH]n1)c1ccc(-c2nnc[nH]2)cc1	11.7%
CN(C(=O)c1cc(NC(=O)c2cc(F)c(F)cc2Cl)[nH]n1)c1ccc(C#N)cc1	12.9%
CNC(=O)c1ccc(N(C)C(=O)c2cc(NC(=O)c3cc(F)c(Cl)cc3Cl)[nH]n2)cc1	9.7%

###

# System: db/db mice
# experimental.protocol: Measuring blood plasma glucose concentration in db/db mice (hypoglycemic effect)
# Assay type: in vivo
# Set-up: key: ++: compounds exhibiting statistically significant hypoglycemic effect at a dose of 10 mg/kg or less; +: compounds exhibiting not significant but obvious hypoglycemic effect at a dose of 10 mg/kg
# experimental.setup: db/db mice fasted 4 h, oral administration, plasma glucose 1 and 3 hours after administration, dose 10 mg/kg or less, Dunnett test vs solvent

structure.as.smiles	vivo (hypoglycemic effect in db/db mice)
COc1ccc(CN(C(=O)c2cc(NC(=O)c3cc(F)c(F)cc3Cl)[nH]n2)C2CCC2)cn1	+
CCN(C(=O)c1cc(NC(=O)c2cc(F)c(F)cc2Cl)[nH]n1)c1ccccc1	+
CCCN(Cc1c(Cl)cncc1Cl)C(=O)c1cc(NC(=O)c2cc(F)c(F)cc2Cl)[nH]n1	+
Nc1ccc(CNC(=O)c2cc(NC(=O)c3cc(F)c(F)cc3Cl)[nH]n2)cc1	+
Cc1ncoc1CNC(=O)c1cc(NC(=O)c2cc(F)c(F)cc2Cl)[nH]n1	++
O=C(Nc1cc(C(=O)N(Cc2ccccn2)C2CCCCC2)n[nH]1)c1cc(F)c(F)cc1Cl	+
CN(C)c1ccc(CNC(=O)c2cc(NC(=O)c3cc(F)c(F)cc3Cl)[nH]n2)cc1	+
COc1ncccc1CNC(=O)c1cc(NC(=O)c2cc(F)c(F)cc2Cl)[nH]n1	++
O=C(NCc1ccc(N2CCC(O)CC2)nc1)c1cc(NC(=O)c2cc(F)c(F)cc2Cl)[nH]n1	+
O=C(NCc1ccc(OCC(F)(F)F)nc1)c1cc(NC(=O)c2cc(F)c(F)cc2Cl)[nH]n1	+
Cc1ccccc1CNC(=O)c1cc(NC(=O)c2cc(F)c(F)cc2Cl)[nH]n1	+
CCCN(C(=O)c1cc(NC(=O)c2cc(F)c(F)cc2Cl)[nH]n1)C1CCN(C(=O)C(=O)O)CC1	+
CCOCCN(C(=O)c1cc(NC(=O)c2cc(F)c(F)cc2Cl)[nH]n1)C1CCCCC1	+
CCCN(Cc1cccnc1)C(=O)c1cc(NC(=O)c2cc(F)c(F)cc2Cl)[nH]n1	+
CCCCN(C(=O)c1cc(NC(=O)c2cc(F)c(F)cc2Cl)[nH]n1)C1CCN(C(=O)C(=O)O)CC1	++
O=C(NCc1csc(-c2cccnc2)n1)c1cc(NC(=O)c2cc(F)c(F)cc2Cl)[nH]n1	+
COc1ccc(CNC(=O)c2cc(NC(=O)c3cc(F)c(F)cc3Cl)[nH]n2)c(OC)n1	+
O=C(Nc1cc(C(=O)N(Cc2cccnc2)C2CCCCC2)n[nH]1)c1cc(F)c(F)cc1Cl	+
O=C(NCc1ccc(N2CCCC2)nc1)c1cc(NC(=O)c2cc(F)c(F)cc2Cl)[nH]n1	+
COc1ccc(CNC(=O)c2cc(NC(=O)c3cc(F)c(F)cc3C)[nH]n2)cn1	+
Cc1cccc(CNC(=O)c2cc(NC(=O)c3cc(F)c(F)cc3Cl)[nH]n2)c1	+
